EXPERIMENTAL TARGET: pooled human IgG (human IgG1, 2, 3 and 4)
QUANTITY: Enzyme Activity Endpoint Assay (purified): IgG (ng/µL)
Please give a number only; it is taken to be in ng/µL.

-- ask Using the record for PRT-635 (protein) MQITSVWTKGVTPLTPDQFTNQGEDVIHAPYTPNQGWYDITKAFDGKDNLLCGAATAGNMLHWWFDQNKTEIEAYLSKHPEKQKIIFNNQELFDLKAAIDTKDSQTNSQLFNYFRDKAFPNLSARQLGVMPDLVLDMFINGYYLNVFKTQSTDVNRPYQDKDKRGGIFDAVFTRGDQTTLLTARHDLKNKGLNDISTIIKQELTEGKALALSHTYANVSISHVINLWGADFNAEGNLEAIYVTDSDANASIGMKKYFVGINAHGHVAISAKKIEGENIGAQVLGLFTLSSGKDIWQKLSLEHHHHHH , state its measured Enzyme Activity Endpoint Assay (purified): IgG.
-- reply 0
